# Tested On: Toll-like receptor 7 (Homo sapiens)
# Method Description: Antagonist activity at TLR7 expressed in HEK293 cells co-transfected with NF-kappaB/sAP gene assessed as inhibition of gardiquimod-induced NF-kappaB activation up to 250 uM by reporter gene assay
# Format: functional, cell-based
Activity calls are given as the source filed them. The rule behind the calls is not given here.
Measurement Label: Activity

>  <Compound Smiles>
CC(C)(C)Nc1c(-c2c3ccccc3cc3ccccc23)nc2ccccn12

>  <Tested On>
Toll-like receptor 7 (Homo sapiens)

>  <Activity>
inactive

$$$$
>  <Compound Smiles>
c1ccc(CNc2c(-c3c4ccccc4cc4ccccc34)nc3cnccn23)cc1

>  <Tested On>
Toll-like receptor 7 (Homo sapiens)

>  <Activity>
inactive

$$$$
>  <Compound Smiles>
c1ccc2c(-c3nc4cnccn4c3NC3CCCCC3)cccc2c1

>  <Tested On>
Toll-like receptor 7 (Homo sapiens)

>  <Activity>
inactive

$$$$
>  <Compound Smiles>
CC(C)(C)Nc1c(-c2c3ccccc3cc3ccccc23)nc2cnccn12

>  <Tested On>
Toll-like receptor 7 (Homo sapiens)

>  <Activity>
inactive

$$$$
>  <Compound Smiles>
c1ccc(Cc2nc3ccccn3c2NC2CCCCC2)cc1

>  <Tested On>
Toll-like receptor 7 (Homo sapiens)

>  <Activity>
inactive

$$$$
>  <Compound Smiles>
c1ccc(CNc2c(-c3c4ccccc4cc4ccccc34)nc3ccccn23)cc1

>  <Tested On>
Toll-like receptor 7 (Homo sapiens)

>  <Activity>
inactive

$$$$
>  <Compound Smiles>
c1ccc(CNc2c(-c3cccc4ccccc34)nc3ccccn23)cc1

>  <Tested On>
Toll-like receptor 7 (Homo sapiens)

>  <Activity>
inactive

$$$$
>  <Compound Smiles>
CC(C)(C)Nc1c(-c2ccccc2)nc2cnccn12

>  <Tested On>
Toll-like receptor 7 (Homo sapiens)

>  <Activity>
inactive

$$$$
>  <Compound Smiles>
c1ccc(CNc2c(Cc3ccccc3)nc3ccccn23)cc1

>  <Tested On>
Toll-like receptor 7 (Homo sapiens)

>  <Activity>
inactive

$$$$
>  <Compound Smiles>
CC(C)(C)Nc1c(Cc2ccccc2)nc2ccccn12

>  <Tested On>
Toll-like receptor 7 (Homo sapiens)

>  <Activity>
inactive

$$$$

From here, focus on the item given below.
Look up Activity for this molecule: c1ccc2c(-c3nc4cnccn4c3NC3CCCCC3)c3ccccc3cc2c1
inactive

====

# Test system: Staphylococcus aureus
# Method Description: Bacteriostatic activity against methicillin resistant Staphylococcus aureus ATCC 33591 by CLSI broth microdilution method
# Type: functional
Measurement Label: MIC (µg/mL)
Please reply with the bare figure in µg/mL and do not write the unit itself.

>  <Compound>
CCCCCNc1c(-c2c3ccccc3cc3ccccc23)nc2ccccn12

>  <Measurement Label>
MIC

>  <Unit Spec>
µg/mL

>  <Recorded Number>
7.81

$$$$

Look up MIC for this compound: c1ccc2c(-c3nc4ccccn4c3NC3CCCCC3)cccc2c1
15.6

Look up MIC for this compound: CC(C)(C)CC(C)(C)Nc1c(-c2c3ccccc3cc3ccccc23)nc2ccccn12
3.91

Look up MIC for this compound: CC(C)(C)Nc1c(-c2c3ccccc3cc3ccccc23)nc2ccc(NCCCCCCCCN)cn12
7.81

Look up MIC for this compound: c1ccc2c(-c3nc4ccccn4c3NC3CCCCC3)c3ccccc3cc2c1
3.91

====

# Tested On: Toll-like receptor 7 (Homo sapiens)
# Method Description: Antagonist activity at TLR7 expressed in HEK293 cells co-transfected with NF-kappaB/sAP gene assessed as inhibition of gardiquimod-induced NF-kappaB activation up to 250 uM by reporter gene assay
# Format: functional, cell-based
The source made the active and inactive calls. No cut-off for these calls is given here.
Measurement Label: Activity

>  <Compound Smiles>
c1ccc(CNc2c(-c3ccccc3)nc3cnccn23)cc1

>  <Activity>
inactive

$$$$
>  <Compound Smiles>
CC(C)(C)Nc1c(-c2cccc3ccccc23)nc2cnccn12

>  <Activity>
inactive

$$$$
>  <Compound Smiles>
c1ccc2c(-c3nc4ccccn4c3NC3CCCCC3)c3ccccc3cc2c1

>  <Activity>
inactive

$$$$
>  <Compound Smiles>
c1ccc(Cc2nc3cnccn3c2NC2CCCCC2)cc1

>  <Activity>
inactive

$$$$

Hello, I am looking for reported Activity with Toll-like receptor 7 (Homo sapiens) for c1ccc(-c2nc3ccccn3c2NC2CCCCC2)cc1 . Could you help?
inactive

Hello, I am looking for reported Activity with Toll-like receptor 7 (Homo sapiens) for c1ccc2c(-c3nc4ccccn4c3NC3CCCCC3)cccc2c1 . Could you help?
inactive

Hello, I am looking for reported Activity with Toll-like receptor 7 (Homo sapiens) for c1ccc(-c2nc3cnccn3c2NC2CCCCC2)cc1 . Could you help?
inactive
